meta.source: patent US20260049134A1

Target: T1, PTPRG-Fc (ECD of human PTPRG, aa 20-736, fused to human Fc gamma 1) (human, UniProt P23470 20-736)
T1 construct: Made in-house in Expi293 cells; Used in ELISA and SPR; also called recombinant PTPRG-Fc; PTRPG; not shown: human IgG1 Fc (Fc gamma 1) after the hinge
T1 sequence: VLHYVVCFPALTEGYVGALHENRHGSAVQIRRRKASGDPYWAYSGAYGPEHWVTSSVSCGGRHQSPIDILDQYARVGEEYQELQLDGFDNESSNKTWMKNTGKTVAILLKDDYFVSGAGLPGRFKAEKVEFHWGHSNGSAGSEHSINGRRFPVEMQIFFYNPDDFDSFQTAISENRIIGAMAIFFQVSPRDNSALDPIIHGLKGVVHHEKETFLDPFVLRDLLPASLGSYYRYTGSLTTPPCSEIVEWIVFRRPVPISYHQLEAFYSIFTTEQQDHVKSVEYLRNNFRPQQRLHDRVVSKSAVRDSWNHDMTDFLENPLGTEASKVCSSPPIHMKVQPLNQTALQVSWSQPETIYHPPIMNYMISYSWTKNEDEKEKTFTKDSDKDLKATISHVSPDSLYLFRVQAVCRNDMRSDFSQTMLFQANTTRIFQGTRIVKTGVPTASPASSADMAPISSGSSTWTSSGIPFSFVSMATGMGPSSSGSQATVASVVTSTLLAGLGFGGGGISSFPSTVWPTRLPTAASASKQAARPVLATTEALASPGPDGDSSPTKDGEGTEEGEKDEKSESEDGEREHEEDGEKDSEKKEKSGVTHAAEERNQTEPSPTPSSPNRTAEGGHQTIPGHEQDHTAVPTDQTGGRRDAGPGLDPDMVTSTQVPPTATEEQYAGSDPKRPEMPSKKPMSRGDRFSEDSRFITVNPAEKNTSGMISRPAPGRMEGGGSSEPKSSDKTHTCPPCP
Experiment: SPR, Biacore X100; PTPRG-Fc captured by anti-human Fc on CM5, Fab injected; mean of triplicates (SD)
pKd: −log10 of the molar value.
VALUE_TYPE: pKd

[[record]]
binder = "HW-1 Fab (chimeric rabbit/human, His-tagged) (Fab, V domains shown, Monovalent Fab: rbVH-huCH1 and rbVL-huCL, His-tagged, made in E. coli from pET11a) VH: QSLEESGGGLFKPTDTLTLTCTASGFSLGSSYAISWVRQAPGKELEWIGTIDSGRAYYARWAKSRSTITRNTNENTVTLKMTSLTAADTATYFCARDLIPTYSQDIWGPGTLVTISS VL: SFVLTQPASVQVNLGQTVSLTCTADTLSRRYASWYQQKPGQAPVLLIYRDTSRPSGVPDRFSGSSSGNTATLTISGAQAGDEADYYCATSDGSGNSYQYVFGGGTQLTVT"
result = 8.60

[[record]]
binder = "HW-42 Fab (chimeric rabbit/human, His-tagged) (Fab, V domains shown, Monovalent Fab: rbVH-huCH1 and rbVL-huCL, His-tagged, made in E. coli from pET11a) VH: QSVKESEGGLFKPADTLTLTCTVSGFSLSSNEISWVRQAPGEGLEYIGIIDTGGRAYYAVWARSRSTITRNTNLNTVTLKMTSLTAADTATYFCARGGVDTEWYAFSSWGPGTLVTVPS VL: SFVLTQPASVQVNLGQTVSLTCTADTLSRRYASWYQQKPGQAPVLLIFRDTSRPSGVPDRFSGSSSGDTATLTISGAQAGDEADYYCATSDGSGSNYQYVFGGGTQLTVT"
result = 7.54

[[record]]
binder = "HW-25 Fab (chimeric rabbit/human, His-tagged) (Fab, V domains shown, Monovalent Fab: rbVH-huCH1 and rbVL-huCL, His-tagged, made in E. coli from pET11a) VH: QSLEESGGRLVTPGTPLTLTCTVSGFSLSSYAMGWVRQAPGKGLEWIGIIDSRGSTYYATWAKGRFTISKTSTTVDLKITSPTTEDTATYFCAREDSYYYDSFNLWGPGTLVTVSS VL: SFVLTQPASVQVNLGQTVSLTCTADTLSRRYASWYQQKPGQAPVLLIYRDTSRPSGVPDRFSGSSSGNTATLTISGAQAGDEADYYCATSDGSGSSYQCVFGGGTQLTVT"
result = 9.19

[[record]]
binder = "HW-17 Fab (chimeric rabbit/human, His-tagged) (Fab, V domains shown, Monovalent Fab: rbVH-huCH1 and rbVL-huCL, His-tagged, made in E. coli from pET11a) VH: QSLGESRGRLVTPDETLTLTCTVSGIDLSSNAMSWVRQAPGEGLEWIGTINTGGRAYYASWAKGRFTISRTSTTVDLKMTSLTTEDTATYFCARERYSDGRAYDIWGPGTLVTISS VL: SFVLTQPASVQVNLGQTVSLTCTADTLSRRYASWYQQKPGQAPVLLIYTDSNRPSGIPDRFSGSSSGNTATLTISGAQAGDEADYYCATDDGSGSIYQYVFGGGTQLTVT"
result = 8.03

[[record]]
binder = "HW-70 Fab (chimeric rabbit/human, His-tagged) (Fab, V domains shown, Monovalent Fab: rbVH-huCH1 and rbVL-huCL, His-tagged, made in E. coli from pET11a) VH: QSLEESGGRLVTPGTPLTLTCTVSGFSLSSNAMSWVRQAPGKGLEWIGTIDGYGYTYYASWAKGRFTVSKTSTTVDLKITSPTTEDTATYFCAREIYLGSNFWGPGTLVTISS VL: SFVLTQPASVQVNLGQTVSLTCTADTLSRRYASWYQQKPGQAPVLLIYRDTSRPSGVPDRFSGSSSGNTATLTISGAQAGDEADYYCATADGSGSSYQFVFGGGTQLTVT"
result = 7.72

